molecular target: FRMPD3, Q5JV73; assay: holdup assay; design: key: below the threshold = too weak to quantify, mostly under pKd 3.1 to 4; settings: plain residues with an end cap or a label only (N-terminal biotin on a linker: ado-ado)
Sequence (Q5JV73 12-100): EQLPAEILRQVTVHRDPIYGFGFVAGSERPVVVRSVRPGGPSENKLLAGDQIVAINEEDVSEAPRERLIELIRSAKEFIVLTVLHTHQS
Observable: pKd

Recorded results for 5 binders are shown here.
{"columns": ["Binder", "pKd"],
 "data": [
  ["PYPTADHMLA [JUP, P14923]", "below the threshold"],
  ["RSSGGDDFWF [KCNV1, Q6PIU1]", 4.82],
  ["PSHPRLQTHV [KIRREL2, Q6UWL6]", "below the threshold"],
  ["LAHVKHKEQI [AQP3, Q92482]", "below the threshold"],
  ["SFISKKEWYV [NECTIN1, Q15223]", 3.94]
]}

Form field pKd, entry NIAESLESLV [PTPRZ1, P23471] : below the threshold

Form field pKd, entry EDGESWEYQI [TRPV6, Q9H1D0] : below the threshold

Form field pKd, entry KKMLQRRTLL [OR8G1, Q15617] : below the threshold

Reference source: paper PMC9482650
